# Test system: Enterococcus faecalis ATCC29212
# measurement_protocol: MIC, microbroth dilution (NCCLS)
# Format: cell-based
# run_parameters: rifS strain, BHI Broth, 37° C., read-out: Antimicrobial activity (MIC)
measurement_kind: MIC

# input compound: COc1c(N2CCC(C3(N4CCN(C5=C6NC(=O)/C(C)=C\C=C\[C@H](C)[C@H](O)[C@@H](C)[C@@H](O)[C@@H](C)[C@H](OC(C)=O)[C@H](C)[C@@H](OC)/C=C/O[C@@]7(C)Oc8c(C)c(O)c(c(c8C7=O)C5=O)C6=O)CC4)CC3)C2)c(F)cc2c(=O)c(C(=O)O)cn(C3CC3)c12 (mixture of isomers) ; wanted: its MIC
2 to 32 µg/mL

Could you do the same for CO[C@H]1/C=C/O[C@@]2(C)Oc3c(C)c(O)c4c(c3C2=O)C(=O)C(NC2CCN(c3c(F)cc5c(=O)c(C(=O)O)cn(C6CC6)c5c3Cl)C2)=C(NC(=O)/C(C)=C\C=C\[C@H](C)[C@H](O)[C@@H](C)[C@@H](O)[C@@H](C)[C@H](OC(C)=O)[C@@H]1C)C4=O (mixture of isomers) , please?
2 to 32 µg/mL

Could you do the same for COc1c(N2CCC(NC(=O)C3CCN(C4=C5NC(=O)/C(C)=C\C=C\[C@H](C)[C@H](O)[C@@H](C)[C@@H](O)[C@@H](C)[C@H](OC(C)=O)[C@H](C)[C@@H](OC)/C=C/O[C@@]6(C)Oc7c(C)c(O)c(c(c7C6=O)C4=O)C5=O)CC3)C2)c(F)cc2c(=O)c(C(=O)O)cn(C3CC3)c12 (mixture of isomers) , please?
2 to 32 µg/mL

The values you see were collected from patent US7247634B2.
